target: GT1a D168A NS3/4A protease (UniProt P27958, C1185S/D1194A, species not given); construct: Ki (nM) GT1a D168A NS3/4A Protease; assay type: biochemical, Hepatitis C virus; details: read-out: Ki (nM) GT1a D168A NS3/4A Protease; Table 1
Endpoint Label: Ki
Write down the value, and be sure its unit follows.

Worked examples follow.
Ki for COc1ccc2nc(C(F)(F)F)c(O[C@@H]3C[C@H]4C(=O)N[C@]5(C(=O)NS(=O)(=O)C6CC6)C[C@H]5/C=C\CCCCC[C@H](NC(=O)OC5CCCC5)C(=O)N4C3)nc2c1 [Compound 22d] is 115 nM

Ki for CCc1nc2ccc(OC)cc2nc1O[C@@H]1C[C@H]2C(=O)N[C@]3(C(=O)NS(=O)(=O)C4(C)CC4)C[C@H]3/C=C\CCCCC[C@H](NC(=O)OC3CCCC3)C(=O)N2C1 [Compound 23a] is 55.2 nM

Others:
Ki for COc1ccc2nc(C(C)C)c(O[C@@H]3C[C@H]4C(=O)N[C@]5(C(=O)NS(=O)(=O)C6(C)CC6)C[C@H]5/C=C\CCCCC[C@H](NC(=O)OC5CCCC5)C(=O)N4C3)nc2c1 [Compound 23e] is 156 nM

Ki for COc1ccc2nc(C(C)C)c(O[C@@H]3C[C@H]4C(=O)N[C@]5(C(=O)NS(=O)(=O)C6CC6)C[C@H]5/C=C\CCCCC[C@H](NC(=O)OC(C)(C)C)C(=O)N4C3)nc2c1 [Compound 18e] is 239 nM

Ki for COc1ccc2nc(C(F)(F)F)c(O[C@@H]3C[C@H]4C(=O)N[C@]5(C(=O)NS(=O)(=O)C6(C)CC6)C[C@H]5/C=C\CCCCC[C@H](NC(=O)OC5CCCC5)C(=O)N4C3)nc2c1 [Compound 23d] is 110 nM

From: patent US11472778B2
